Tested on: CCRF-CEM
test: Growth inhibition of human CCRF-CEM cells after 72 hrs
Type: functional, cell-based
Each entry below carries its recorded IC50.
The answer is to be given in nM; state only the numeric part.

# example entries with known answers
>  <molecule>
CN(Cc1cnc2nc(N)nc(N)c2n1)c1ccc2c(c1)CN([C@@H](CCC(=O)O)C(=O)O)C2=O

>  <meas_value>
140

$$$$
>  <molecule>
Nc1nc(N)c2nc(CNc3ccc4c(c3)CN([C@@H](CCC(=O)O)C(=O)O)C4=O)cnc2n1

>  <meas_value>
5.1

$$$$

Please turn your attention to the following entry.
Task: Data request, read-out IC50, for Nc1nc(N)c2nc(CNc3ccc4c(c3)CN(C(CCC(=O)O)C(=O)O)C4=O)cnc2n1 (racemic)
Result: 8.4
